Protocol: ATG_BRE_CIS: Attagene CIS-FACTORIAL HepG2 Assay for human Bone Morphogenetic Protein (BMP) Response Element (BRE) (AID 2282933)
Condition Summary: HepG2 BMP response element reporter, Attagene transcription factor profiling; actives raise or lower the signal
Calls of active or inactive are those of the source. Rule for the calls: active = hit-call score of the fitted dose curve at least 0.9, where 1 is the maximum; inactive = score below 0.9.
Outcome codes: active, inactive

INSERT INTO assay_data (compound, category) VALUES
  ('Nc1ccc(Cl)cc1Cl', 'inactive'),
  ('CCCCCCCOC(=O)CCC', 'inactive'),
  ('COC(=O)c1cc(Cl)ccc1[N+](=O)[O-]', 'inactive'),
  ('c1cc(N(CC2CO2)CC2CO2)ccc1OCC1CO1 (stereo unspecified)', 'inactive'),
  ('Cc1ccc(N)c([N+](=O)[O-])c1', 'inactive'),
  ('Nc1cccc(C(F)(F)F)c1', 'inactive'),
  ('O=CC1CC1', 'inactive'),
  ('CC(=O)CC(N)=O', 'inactive'),
  ('C#CC1(O)CC[C@H]2[C@@H]3CCC4=CCCC[C@@H]4[C@H]3CC[C@@]21C (stereo partly specified)', 'active'),
  ('CCCCCC(C)O (stereo unspecified)', 'inactive'),
  ('CC(=O)C=CC1C(C)=CCC(C)C1(C)C (stereo unspecified)', 'inactive'),
  ('CCCCCCOC(=O)C(C)CC (stereo unspecified)', 'inactive'),
  ('C=C(C)C(=O)OCCOc1ccccc1', 'inactive'),
  ('CCO[Si](CCCN=C=O)(OCC)OCC', 'inactive'),
  ('CCCCOCCOC(=O)COc1nc(Cl)c(Cl)cc1Cl', 'inactive'),
  ('CCOCC(=O)O', 'inactive');

###

Protocol: ATG_TCF_b_cat_CIS: Attagene CIS-FACTORIAL HepG2 Assay for human T-Cell-Factor with beta-catenin (TCF/b-cat) (AID 2282965)
Condition Summary: HepG2 TCF/beta-catenin cis-reporter transcription, actives raise or lower the signal
The source made the active and inactive calls. How the source made its calls: active means hit-call score of the fitted dose curve at least 0.9, where 1 is the maximum; inactive means score below 0.9.
Outcome codes: active, inactive

INSERT INTO results (compound, category) VALUES
  ('CCO[Si](CCCN=C=O)(OCC)OCC', 'inactive'),
  ('Cc1ccc([N+](=O)[O-])cc1S(=O)(=O)O', 'inactive'),
  ('CC(=O)OC1C2(C)CCC(C2)C1(C)C (centres undefined)', 'inactive'),
  ('CNC(=S)NN', 'inactive'),
  ('O=C(O)Cc1c(Cl)ccc(Cl)c1Cl', 'inactive'),
  ('Cc1c(C)c([N+](=O)[O-])c(C(C)(C)C)c([N+](=O)[O-])c1C', 'inactive'),
  ('CC1=NC(C)OC1C (centres undefined)', 'active'),
  ('CC(C)c1ccc(C#N)cc1', 'inactive'),
  ('C=C(C)[C@H]1CC=C(C)CC1', 'inactive'),
  ('OCCNCc1ccccc1', 'inactive'),
  ('CC(=O)[C@H]1[C@H](C#N)C[C@H]2[C@@H]3CC=C4C[C@@H](O)CC[C@]4(C)[C@H]3CC[C@@]21C', 'inactive'),
  ('Clc1nc2ccccc2s1', 'inactive'),
  ('CC(=O)c1ccc2c(c1)CCCC2', 'inactive'),
  ('CC1(C)S[C@@H]2[C@H](NC(=O)COc3ccccc3)C(=O)N2[C@H]1C(=O)O', 'inactive');

###

Protocol: BSK_3C_uPAR: BioMAP Diversity Plus: 3C Assay for Urokinase-type plasminogen activator receptor (uPAR) Biomarker Activity (AID 2282998)
Condition Summary: BioMAP 3C HUVEC, uPAR biomarker ELISA; actives raise or lower the signal
Active and inactive are the calls of the source. Rule for the calls: active = hit-call score of the fitted dose curve at least 0.9, where 1 is the maximum; inactive = score below 0.9.
Quantity: AC50

INSERT INTO results (compound, quantity, reported_value) VALUES
  ('O=C1CCCN1CCO', 'AC50', 'inactive'),
  ('COCc1c(C(C)C)nc(C(C)C)c(/C=C/[C@@H](O)C[C@@H](O)CC(=O)O)c1-c1ccc(F)cc1', 'AC50', '0.0342 µM (active)'),
  ('CN1C(=O)N(C)C(O)C1O (configuration not stated)', 'AC50', 'inactive'),
  ('O=C(Cl)c1cc(C(=O)Cl)cc(C(=O)Cl)c1', 'AC50', '10.2 µM (active)'),
  ('C#CC1(O)CC[C@H]2[C@@H]3CCC4=CCCC[C@@H]4[C@H]3CC[C@@]21C (some centres not stated)', 'AC50', '9.84 µM (active)'),
  ('C=C[Si](OC(C)=O)(OC(C)=O)OC(C)=O', 'AC50', 'inactive'),
  ('CCOc1nc(F)cc2nc(S(=O)(=O)Nc3c(Cl)cccc3C(=O)OC)nn12', 'AC50', 'inactive');

###

Assay System: Luciferin 4-monooxygenase (Photinus pyralis)
Protocol: CCTE_Simmons_QuantiLum_inhib_2: CCTE's Firefly Luciferase Inhibition Assay, Simmons Lab (AID 2283767)
Inconclusive results are not listed. Calls of active or inactive are those of the source. How the source made its calls: active means hit-call score of the fitted dose curve at least 0.9, where 1 is the maximum; inconclusive means response in the unintended direction; inactive means score below 0.9.
Classes used: y for active, n for inactive

INSERT INTO results (sample_smiles, category) VALUES
  ('CC(C)(C)c1ccc(N)cc1', 'n'),
  ('C1=Cc2ccccc2C1', 'n'),
  ('c1ccc2c(c1)ccc1cc3c(ccc4ccccc43)cc12', 'y'),
  ('O=C(c1ccccc1)c1ccc(O)c(O)c1O', 'n'),
  ('CCCCC/C=C\C/C=C\CCCCCCCC(=O)OC', 'n'),
  ('CC(C)(C)c1ccc(-c2ccc(C(C)(C)C)cc2)cc1', 'n'),
  ('COC(=O)c1c(C)cc(O)c(C)c1O', 'n'),
  ('CC/C=C\C/C=C\C/C=C\CCCCCCCC(=O)O', 'n'),
  ('CNC(=S)NN', 'n'),
  ('O=S(=O)(O)c1ccccc1C=Cc1ccc(-c2ccc(C=Cc3ccccc3S(=O)(=O)O)cc2)cc1', 'n'),
  ('CCCCCCCCCCCCCOP(=O)(O)O', 'n'),
  ('Cc1ccc(N/N=c2\c(=O)cc/c(=N/Nc3ccc(S(=O)(=O)O)cc3)c2=O)c(C)c1', 'y');

###

Protocol: ATG_NRF2_ARE_CIS: Attagene CIS-FACTORIAL HepG2 Assay for human Nuclear Factor Erythroid 2 Related Factor 2 (NFR2) response to Antioxidant Response Elements (ARE) (AID 2282992)
Condition Summary: HepG2 Attagene ARE/NRF2 reporter, transcription factor activity; actives raise or lower the signal
Method: ATG_CIS is a cell-based, multiplexed-readout assay that uses HepG2, a human liver cell line, with measurements taken at 24 hours after chemical dosing in a 24-well plate.ATG_NRF2_ARE_CIS is one of 52 assay component(s) measured or calculated from the ATG_CIS assay. […] This assay endpoint, ATG_NRF2_ARE_CIS, was analyzed with bidirectional fitting relative to DMSO as the negative control and baseline of activity. […]
Activity calls are given as the source filed them. How the source made its calls: active means hit-call score of the fitted dose curve at least 0.9, where 1 is the maximum; inactive means score below 0.9.
Possible outcomes: active, inactive

INSERT INTO results (sample_smiles, category) VALUES
  ('C=COCCCC', 'inactive'),
  ('CC(=O)Oc1ccc(C(C)=O)cc1', 'inactive'),
  ('NC(=O)OCC(COC(N)=O)c1ccccc1', 'inactive'),
  ('CCN(Cc1cccc(S(=O)(=O)O)c1)c1ccc(C(=C2C=CC(=[N+](CC)Cc3cccc(S(=O)(=O)[O-])c3)C=C2)c2ccccc2)cc1', 'active'),
  ('Cc1ccc(C(C)(C)C)cc1', 'inactive'),
  ('N#[N+]c1ccc2c(S(=O)(=O)[O-])cccc2c1O', 'inactive');

###

Protocol: BSK_3C_TissueFactor: BioMAP Diversity Plus: 3C Assay for Tissue Factor Biomarker Activity (AID 2282997)
Condition Summary: BioMAP 3C HUVEC, tissue factor biomarker readout; actives raise or lower the signal
Active and inactive are the calls of the source. How the source made its calls: active means hit-call score of the fitted dose curve at least 0.9, where 1 is the maximum; inactive means score below 0.9.
Quantity: AC50

INSERT INTO assay_data (compound, reported_value) VALUES
  ('CO[Si](OC)(OC)c1ccccc1', 'inactive'),
  ('CCCCCCCCCCCCCCCC[N+](C)(C)CC', '12.1 µM (active)'),
  ('COCc1c(C(C)C)nc(C(C)C)c(/C=C/[C@@H](O)C[C@@H](O)CC(=O)O)c1-c1ccc(F)cc1', '5.66 µM (active)'),
  ('O=C(Cl)c1cc(C(=O)Cl)cc(C(=O)Cl)c1', '12.2 µM (active)'),
  ('O=c1c2ccccc2oc2ccccc12', '3.97 µM (active)'),
  ('C#CC1(O)CC[C@H]2[C@@H]3CCC4=CCCC[C@@H]4[C@H]3CC[C@@]21C (some centres not stated)', '8.34 µM (active)'),
  ('C=C[Si](OC(C)=O)(OC(C)=O)OC(C)=O', 'inactive'),
  ('O=C(c1ccc(O)cc1)c1ccc(O)cc1O', 'inactive'),
  ('CCCCC(CC)COCC1CO1 (configuration not stated)', 'inactive'),
  ('S=C(NC1CCCCC1)NC1CCCCC1', 'inactive'),
  ('O=C(Nc1ccccc1SSc1ccccc1NC(=O)c1ccccc1)c1ccccc1', '1.15 µM (active)'),
  ('C/C=C\C/C=C/CCCCCCCCOC(C)=O', '9.54 µM (active)');
